Target: Poly [ADP-ribose] polymerase tankyrase-1 (Homo sapiens, UniProt O95271)
Sequence (O95271 whole entry): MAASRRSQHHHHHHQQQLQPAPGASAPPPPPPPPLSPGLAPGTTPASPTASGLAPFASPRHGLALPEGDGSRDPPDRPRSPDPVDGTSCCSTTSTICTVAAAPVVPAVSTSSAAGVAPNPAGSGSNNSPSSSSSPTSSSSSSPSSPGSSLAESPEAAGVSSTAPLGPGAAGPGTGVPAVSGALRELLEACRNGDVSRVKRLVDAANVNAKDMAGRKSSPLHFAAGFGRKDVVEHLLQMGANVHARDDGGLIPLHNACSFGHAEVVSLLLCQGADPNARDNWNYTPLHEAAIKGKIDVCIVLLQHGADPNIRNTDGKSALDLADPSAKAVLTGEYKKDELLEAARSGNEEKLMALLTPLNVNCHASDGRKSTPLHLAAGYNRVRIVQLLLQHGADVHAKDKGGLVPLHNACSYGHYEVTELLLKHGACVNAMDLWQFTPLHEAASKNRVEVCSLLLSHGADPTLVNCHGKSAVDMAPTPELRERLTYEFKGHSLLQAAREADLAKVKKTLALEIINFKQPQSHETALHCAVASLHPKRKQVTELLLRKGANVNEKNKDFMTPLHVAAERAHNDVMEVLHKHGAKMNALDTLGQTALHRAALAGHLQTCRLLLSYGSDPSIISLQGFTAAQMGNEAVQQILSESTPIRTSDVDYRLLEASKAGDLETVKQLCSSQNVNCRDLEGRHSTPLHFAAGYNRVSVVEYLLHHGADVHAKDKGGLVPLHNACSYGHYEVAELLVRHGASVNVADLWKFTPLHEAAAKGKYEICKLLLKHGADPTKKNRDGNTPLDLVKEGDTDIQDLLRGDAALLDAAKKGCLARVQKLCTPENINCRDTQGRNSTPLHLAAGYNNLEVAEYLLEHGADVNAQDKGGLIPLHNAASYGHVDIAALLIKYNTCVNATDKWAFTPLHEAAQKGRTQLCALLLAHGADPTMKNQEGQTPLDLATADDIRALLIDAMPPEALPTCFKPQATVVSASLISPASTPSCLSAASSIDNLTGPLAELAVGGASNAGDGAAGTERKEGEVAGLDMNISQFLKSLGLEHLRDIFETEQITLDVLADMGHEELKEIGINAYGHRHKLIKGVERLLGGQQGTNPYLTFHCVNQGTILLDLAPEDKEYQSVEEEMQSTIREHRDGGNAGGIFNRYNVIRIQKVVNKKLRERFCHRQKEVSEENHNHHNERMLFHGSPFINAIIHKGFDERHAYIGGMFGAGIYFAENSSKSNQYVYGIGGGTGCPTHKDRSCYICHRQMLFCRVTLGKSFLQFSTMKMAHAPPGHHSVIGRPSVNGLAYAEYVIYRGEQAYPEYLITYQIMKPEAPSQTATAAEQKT
Property Name: IC50 (nM)
Quick reminder: number only, in nM, skip the unit.

Challenge: Given the entry Cc1ccnc2c(NC(=O)c3ccc(N4C(=O)[C@@H]5[C@H](C4=O)[C@@H]4C=C[C@H]5C4)cc3)cccc12 , report its measured IC50.
Response given: 192

###

biological target: UniProt Q9UGN5
Sequence (Q9UGN5 whole entry): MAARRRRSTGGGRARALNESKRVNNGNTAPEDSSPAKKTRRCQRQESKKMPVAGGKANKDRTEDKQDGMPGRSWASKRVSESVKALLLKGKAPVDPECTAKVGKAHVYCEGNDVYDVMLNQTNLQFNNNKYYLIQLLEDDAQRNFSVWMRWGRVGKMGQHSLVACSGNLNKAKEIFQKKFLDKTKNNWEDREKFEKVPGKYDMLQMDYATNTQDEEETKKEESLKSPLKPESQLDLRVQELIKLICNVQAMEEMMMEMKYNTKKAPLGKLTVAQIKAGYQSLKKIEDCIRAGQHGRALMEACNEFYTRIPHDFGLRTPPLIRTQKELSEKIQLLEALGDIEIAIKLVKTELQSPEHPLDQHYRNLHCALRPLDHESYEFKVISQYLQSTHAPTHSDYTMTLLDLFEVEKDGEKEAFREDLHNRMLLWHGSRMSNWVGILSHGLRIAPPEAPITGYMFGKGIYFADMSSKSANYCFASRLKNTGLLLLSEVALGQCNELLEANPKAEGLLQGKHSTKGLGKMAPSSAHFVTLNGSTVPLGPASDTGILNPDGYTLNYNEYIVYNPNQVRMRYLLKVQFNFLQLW
Property Name: IC50
Respond with the figure and its unit, in that order.

Challenge: What measured IC50 is associated with COc1ccccc1NC(=O)c1ccc(NC(=O)CCc2nc3ccccc3c(=O)[nH]2)cc1 on UniProt Q9UGN5?
Response given: 931 nM
